Test: melting temperature; fluorescence melt of hairpins on a sequencing array, two-state fit, raised by 9.35 °C to match UV melts
Settings: sodium 0.088 M
readout: Tm (°C)
State just the number; it will be interpreted in °C.

Worked cases, answers included:
INSERT INTO results (residue_sequence, unit_tag, numeric_readout) VALUES
  ('GCCTTGCGAAAGCAGAGC ((..(((....)))..))', '°C', 51.2),
  ('GGGTTGGGAAACCGACCC ((((.((....)).))))', '°C', 58.4),
  ('GGGTAGTCGAAAGACCCC (((..(((....))))))', '°C', 45.4),
  ('GTATCGGGAAACTGATAC (((((.(....).)))))', '°C', 45.3),
  ('GATCTTTCGGAAGATC ((((((....))))))', '°C', 43.9),
  ('GCCCCAGGAAACTGGAGC ((.((((....)))).))', '°C', 46.7);

Please report the recorded Tm for CGCCCGGAAACGGTAGCG ((((((....)))..))) .
50.9

Input GCTACTGAAAAGTAGC ((((((....))))))
56.7

Input GATCCGTAGGCGGATC ((((((....))))))
59.2

Input GATCAACGCCTTGATC ((((((....))))))
46.1

Input GATCGATCCTTCGATC ((((((....))))))
55.5

Input GGTAGCACGAAAGTGACC (((..(((....))))))
32.2

* * *

Experiment: melting temperature; fluorescence melt of hairpins on a sequencing array, two-state fit, raised by 9.35 °C to match UV melts
Settings: sodium 0.088 M
Below: a set of entries, each annotated with reported Tm.
State just the number; it will be interpreted in °C.

Worked cases, answers included:
INSERT INTO assay_data (residue_sequence, readout, unit_tag, numeric_readout) VALUES
  ('GACCGAGGAAACTCGACC (..((((....))))..)', 'Tm', '°C', 26.6),
  ('GCAAGCCCGAAAGGGTGC (((..(((....))))))', 'Tm', '°C', 47.2),
  ('GCTGACGAAAGTCCAGC ((((((....))).)))', 'Tm', '°C', 54.5),
  ('GGTTGGACGAAAGTCACC (((..(((....))))))', 'Tm', '°C', 34.1),
  ('GGACTCGAAAGAGCATCC ((((((....)))..)))', 'Tm', '°C', 24.9);

Now consider the entry below.
Please report the recorded Tm for GGGGACACGAAAGTGCCC (((..(((....)))))) .
55.5

* * *

Below: a set of entries, each annotated with reported Tm.
Experiment: melting temperature; fluorescence melt of hairpins on a sequencing array, two-state fit, raised by 9.35 °C to match UV melts
Details: sodium 0.088 M
State just the number; it will be interpreted in °C.

Worked cases, answers included:
INSERT INTO results (residue_sequence, readout, numeric_readout) VALUES
  ('GGCGGGGGAAACCCCGTC (.(((((....))))).)', 'Tm', 65.1),
  ('GATCCGAGTACGGATC ((((((....))))))', 'Tm', 58.6),
  ('GTCTTCGGAAACGAAAAC ((.((((....)))).))', 'Tm', 29.2),
  ('GTATCCGGAAACGGATAC (((((((....)))))))', 'Tm', 63.7),
  ('GTCAACGAAAGTTCGGAC ((((((....)))..)))', 'Tm', 30.5),
  ('AGAACGAAAGTTCT (((((....)))))', 'Tm', 53.1);

Now consider the entry below.
Please report the recorded Tm for GATCTGTCACAGATC ((((((...)))))) .
50.6
